The entries below come with measured pIC50 values attached.
test target: Progesterone receptor (Bos taurus, UniProt Q690N0)
Sequence (Q690N0 whole entry): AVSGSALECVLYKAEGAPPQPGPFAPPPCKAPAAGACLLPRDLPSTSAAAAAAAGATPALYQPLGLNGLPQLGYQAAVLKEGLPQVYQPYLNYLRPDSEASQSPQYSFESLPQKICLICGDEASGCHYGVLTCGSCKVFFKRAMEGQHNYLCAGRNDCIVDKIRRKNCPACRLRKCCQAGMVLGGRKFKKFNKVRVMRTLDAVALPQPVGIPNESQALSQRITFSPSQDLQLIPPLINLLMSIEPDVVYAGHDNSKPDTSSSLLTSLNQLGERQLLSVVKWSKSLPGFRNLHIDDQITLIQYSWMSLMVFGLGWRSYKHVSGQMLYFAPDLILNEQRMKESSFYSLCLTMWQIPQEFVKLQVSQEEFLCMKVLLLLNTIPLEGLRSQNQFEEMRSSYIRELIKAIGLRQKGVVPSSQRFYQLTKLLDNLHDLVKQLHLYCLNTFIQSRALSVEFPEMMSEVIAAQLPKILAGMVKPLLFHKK
test method notes: DRUGMATRIX: Progesterone radioligand binding (ligand: [3H] R-5020)
Format: tissue-based, Uterus
condition: Not Active = under 50% inhibition at 10 µM; read-out: IC50
On this scale, pIC50 is minus log10 of a concentration expressed in M (mol/L).

molecule | property name | assay result
C[C@]12CCC(=O)C=C1CC[C@@H]1[C@@H]2CC[C@@]2(C)[C@H]1CC[C@]2(C)O | pIC50 | 6.60

State its pIC50 on Progesterone receptor (Bos taurus, UniProt Q690N0): CC/C(=C(\c1ccccc1)c1ccc(OCCN(C)C)cc1)c1ccccc1
4.70

###

test target: Vasoactive intestinal polypeptide receptor 1 (Homo sapiens); also: in other assays of this panel Not Active means under 50% inhibition at 10 µM
Sequence (P32241 whole entry): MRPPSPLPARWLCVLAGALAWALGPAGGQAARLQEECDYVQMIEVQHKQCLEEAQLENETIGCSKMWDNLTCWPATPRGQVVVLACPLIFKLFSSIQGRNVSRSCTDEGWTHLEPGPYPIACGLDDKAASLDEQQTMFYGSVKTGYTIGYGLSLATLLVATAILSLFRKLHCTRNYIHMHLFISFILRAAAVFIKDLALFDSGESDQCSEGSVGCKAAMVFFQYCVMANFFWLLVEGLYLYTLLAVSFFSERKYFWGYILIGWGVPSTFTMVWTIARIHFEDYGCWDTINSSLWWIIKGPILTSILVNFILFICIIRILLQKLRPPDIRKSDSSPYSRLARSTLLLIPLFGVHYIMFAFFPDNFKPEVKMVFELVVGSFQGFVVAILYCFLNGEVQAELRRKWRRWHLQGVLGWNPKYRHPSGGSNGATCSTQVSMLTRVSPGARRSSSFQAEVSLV
Type: cell membranes, Membrane
condition: ht-29
property name: IC50

Look over these answered cases.
compound | IC50
Sc1ncnc2nc[nH]c12 [MERCAPTOPURINE ANHYDROUS] | Not Active
COc1c(C)c2c(c(O)c1C/C=C(\C)CCC(=O)O)C(=O)OC2 | Not Active
c1ccc([C@H]2CN3CCSC3=N2)cc1 | Not Active
COc1cc2c3cc1Oc1cc(ccc1O)C[C@@H]1c4c(cc(OC)c(O)c4Oc4ccc(cc4)C[C@@H]3N(C)CC2)CC[N+]1(C)C.[Cl-] | Not Active
O=C(O)CCCc1ccc(N(CCCl)CCCl)cc1 | Not Active
Cc1noc(NS(=O)(=O)c2ccc(N)cc2)c1C | Not Active

Now examine the next entry.
What value of measured IC50 is listed for Clc1cccc(Cl)c1NC1=NCCN1 ?
Not Active

###

test target: 5-hydroxytryptamine receptor 6 (Homo sapiens, UniProt P50406); also: in other assays of this panel Not Active means under 50% inhibition at 10 µM
Sequence (P50406 whole entry): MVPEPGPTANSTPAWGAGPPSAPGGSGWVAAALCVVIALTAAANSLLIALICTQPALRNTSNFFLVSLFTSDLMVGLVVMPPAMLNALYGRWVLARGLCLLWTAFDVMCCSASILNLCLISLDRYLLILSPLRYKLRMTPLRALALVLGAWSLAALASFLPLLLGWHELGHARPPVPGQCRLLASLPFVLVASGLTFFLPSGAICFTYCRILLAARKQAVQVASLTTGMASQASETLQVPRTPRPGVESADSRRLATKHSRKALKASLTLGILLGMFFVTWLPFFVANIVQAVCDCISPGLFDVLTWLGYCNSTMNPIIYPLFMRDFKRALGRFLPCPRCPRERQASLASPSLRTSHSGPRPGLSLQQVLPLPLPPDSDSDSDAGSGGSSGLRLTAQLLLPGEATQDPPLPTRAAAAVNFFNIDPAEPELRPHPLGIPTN
Format: cell membranes, HeLa, Membrane
condition: hela
property name: Ki

substance | assay result
LEAD (II) ACETATE | Not Active
CADMIUM ACETATE | Not Active
SODIUM NITROPRUSSIDE | Not Active
LIPOPOLYSACCHARIDE E. COLI O55:B5 | Not Active

###

Record set of pIC50 for target or system Cytochrome P450 2D6 (Homo sapiens, UniProt P10635). Also: in other assays of this panel Not Active means under 50% inhibition at 10 µM.
On this scale, pIC50 is minus log10 of a concentration expressed in M (mol/L).

Look over these answered cases.
molecule | pIC50
Cc1ccc(N(CC2=NCCN2)c2cccc(O)c2)cc1 | 5.00
CCCN1C[C@H](CSC)C[C@@H]2c3cccc4[nH]cc(c34)C[C@H]21 [PERGOLIDE] | 6.70
CN(C)C(=O)Oc1cc(OC(=O)N(C)C)cc(C(O)CNC(C)(C)C)c1 (centres undefined) | 5.70

Now examine the next entry.
What value of measured pIC50 is listed for Nc1c2c(nc3ccccc13)CCCC2 ?
6.52
